Quick list: Skeletal EC25 per entry.
Test system: Rabbit Psoas myofibrils (skeletal myosin ATPase)
Assay: Myofibril ATPase assay, rabbit psoas (skeletal) myofibrils
Assay type: biochemical
Conditions: rabbit psoas myofibrils; Y75 value
Supply the numeric figure in nM, leaving out any unit text.

Some compounds with known Skeletal EC25 results, for comparison:
Cc1nccc2[nH]c(=O)c(CC(=O)NC(CO)c3ncccc3F)c(C)c12 (stereo not shown) [compound 237]; 100000
CCOc1nccc2[nH]c(=O)c([C@@H](C)C(=O)N[C@@H](C)c3ccc(F)cc3F)c(C(F)(F)F)c12 (single isomer, unassigned) [compound 416]; 460
Cc1nccc2[nH]c(=O)c(CC(=O)N[C@@H](C)c3ccc(C#N)cc3F)c(F)c12 [compound 149]; 20

Requested field: Skeletal EC25. Item: C#Cc1nccc2[nH]c(=O)c(CC(=O)N[C@@H](C)c3cnc(N=[N+]=[N-])cc3C)c(C)c12 [compound 488] 1150

Requested field: Skeletal EC25. Item: C[C@H](NC(=O)[C@@H](C)c1cc2c(C#N)nccc2[nH]c1=O)c1ccc(F)cc1F (single isomer, unassigned) [compound 361] 30

Requested field: Skeletal EC25. Item: C[C@H](NC(=O)[C@H](C)c1cc2cnccc2[nH]c1=O)c1ccc(F)cc1F (single isomer, unassigned) [compound 443] 1340

Requested field: Skeletal EC25. Item: Cc1c(CC(=O)N[C@@H](C)c2ccc(F)cc2F)c(=O)[nH]c2ccc(C(F)(F)F)nc12 [compound 393] 20

###

Test system: Porcine atria myofibrils (atrial myosin ATPase)
Assay: Myofibril ATPase assay, porcine atria myofibrils
Assay type: biochemical
Details: Y75 value (no ‡ mark); porcine atria myofibrils
Endpoint Name: Atrial EC25 (nM)
Supply the numeric figure in nM, leaving out any unit text.

Some compounds with known Atrial EC25 results, for comparison:
Cc1c(CC(=O)N[C@H](C)c2ncc(C3COC3)cn2)c(=O)[nH]c2ccc(F)c(F)c12 (single isomer, unassigned); 1010
N#Cc1ccc([C@H](CO)NC(=O)Cc2c(C3CC3)c3cc(F)ccc3[nH]c2=O)c(F)c1; 100000
Cc1ccncc1[C@@H](C)NC(=O)Cc1c(C)c2c(C)c(F)ccc2[nH]c1=O; 60

// fetch Porcine atria myofibrils (atrial myosin ATPase) Atrial EC25 for N#Cc1ccc([C@@H](CO)NC(=O)Cc2c(C3CC3)c3cc(F)ccc3[nH]c2=O)c(F)c1 59370

// fetch Porcine atria myofibrils (atrial myosin ATPase) Atrial EC25 for Cc1c(C(F)(F)C(=O)N[C@@H](C)c2ncc(C#N)cn2)c(=O)[nH]c2ccc(F)c(C(F)(F)F)c12 (single isomer, unassigned) 600

// fetch Porcine atria myofibrils (atrial myosin ATPase) Atrial EC25 for Cc1c(CC(=O)N[C@@H](C)c2ncc(C#N)cc2F)c(=O)[nH]c2ccc(F)c(Cl)c12 (single isomer, unassigned) 40

// fetch Porcine atria myofibrils (atrial myosin ATPase) Atrial EC25 for Cc1c(CC(=O)N[C@@H](C)c2ccc(C#N)cn2)c(=O)[nH]c2cc(F)c(F)cc12 970

###

Target: Porcine ventricle myofibrils (ventricular myosin ATPase) (Sus scrofa, UniProt P79293)
Construct: Myofibrils from porcine cardiac muscle was isolated from the left ventricle of Yucatan minipigs; tissue Exemplar Genetics; host or cells: left ventricle of Yucatan minipigs, myofibrils prepared in house
Sequence (P79293 whole entry): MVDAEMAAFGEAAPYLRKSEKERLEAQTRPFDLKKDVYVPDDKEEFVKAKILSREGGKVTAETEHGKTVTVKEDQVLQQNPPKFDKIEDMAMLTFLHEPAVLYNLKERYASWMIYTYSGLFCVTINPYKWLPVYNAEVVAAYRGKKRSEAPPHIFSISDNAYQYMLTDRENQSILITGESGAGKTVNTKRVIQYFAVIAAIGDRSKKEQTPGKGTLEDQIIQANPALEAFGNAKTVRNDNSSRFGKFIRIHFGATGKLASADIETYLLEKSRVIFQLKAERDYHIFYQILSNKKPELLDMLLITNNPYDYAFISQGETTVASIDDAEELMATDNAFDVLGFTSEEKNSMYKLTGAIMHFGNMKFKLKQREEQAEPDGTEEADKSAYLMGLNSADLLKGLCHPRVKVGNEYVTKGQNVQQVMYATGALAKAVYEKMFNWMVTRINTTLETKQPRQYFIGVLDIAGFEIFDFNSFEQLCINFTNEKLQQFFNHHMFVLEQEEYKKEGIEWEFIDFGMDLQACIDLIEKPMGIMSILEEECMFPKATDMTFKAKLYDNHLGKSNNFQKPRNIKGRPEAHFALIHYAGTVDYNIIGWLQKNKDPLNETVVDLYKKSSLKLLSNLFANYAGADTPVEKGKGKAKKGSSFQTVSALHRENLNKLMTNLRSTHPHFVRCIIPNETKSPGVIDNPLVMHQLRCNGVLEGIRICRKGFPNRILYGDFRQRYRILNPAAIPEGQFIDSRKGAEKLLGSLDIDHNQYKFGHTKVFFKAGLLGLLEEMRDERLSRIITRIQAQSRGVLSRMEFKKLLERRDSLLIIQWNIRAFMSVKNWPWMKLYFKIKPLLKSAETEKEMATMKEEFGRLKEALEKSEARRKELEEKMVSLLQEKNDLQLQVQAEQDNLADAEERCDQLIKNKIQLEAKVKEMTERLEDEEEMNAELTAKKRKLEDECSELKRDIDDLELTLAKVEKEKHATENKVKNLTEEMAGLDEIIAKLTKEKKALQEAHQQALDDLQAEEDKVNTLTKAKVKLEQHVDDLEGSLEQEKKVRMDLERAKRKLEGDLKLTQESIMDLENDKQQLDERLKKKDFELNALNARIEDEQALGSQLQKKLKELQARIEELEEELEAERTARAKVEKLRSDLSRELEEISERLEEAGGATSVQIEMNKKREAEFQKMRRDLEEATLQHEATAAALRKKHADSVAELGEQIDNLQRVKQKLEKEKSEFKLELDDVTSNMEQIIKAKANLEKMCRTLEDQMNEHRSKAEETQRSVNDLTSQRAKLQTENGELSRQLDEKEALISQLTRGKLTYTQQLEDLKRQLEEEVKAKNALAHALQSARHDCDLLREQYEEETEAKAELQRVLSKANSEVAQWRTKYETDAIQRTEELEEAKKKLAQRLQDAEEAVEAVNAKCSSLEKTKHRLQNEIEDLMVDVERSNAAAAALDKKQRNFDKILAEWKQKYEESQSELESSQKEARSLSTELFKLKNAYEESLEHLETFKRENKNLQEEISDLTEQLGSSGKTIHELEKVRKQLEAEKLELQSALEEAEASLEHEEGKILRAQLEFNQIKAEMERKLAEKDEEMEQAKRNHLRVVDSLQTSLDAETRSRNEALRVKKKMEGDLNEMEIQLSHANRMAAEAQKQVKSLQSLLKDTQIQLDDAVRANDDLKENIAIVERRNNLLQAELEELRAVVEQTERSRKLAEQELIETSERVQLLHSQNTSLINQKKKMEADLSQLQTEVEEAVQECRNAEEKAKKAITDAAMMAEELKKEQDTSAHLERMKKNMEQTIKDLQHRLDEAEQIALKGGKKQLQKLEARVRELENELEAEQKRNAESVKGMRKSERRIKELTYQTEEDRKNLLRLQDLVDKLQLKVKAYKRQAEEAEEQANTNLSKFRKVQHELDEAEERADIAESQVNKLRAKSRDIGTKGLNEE
Assay: Myofibril ATPase assay, porcine ventricle myofibrils
Format: biochemical, porcine (Yucatan minipigs)
Details: porcine ventricle myofibrils; Y75 value
Endpoint Name: Ventricular EC25

Cc1c(CC(=O)N[C@@H](C)c2ccc(F)cc2F)c(=O)[nH]c2ccnc(F)c12; 0.29 µM
Cc1nccc2[nH]c(=O)c(C(F)(F)C(=O)N[C@@H](C)c3ncc(C#N)cc3F)c(C)c12 (single isomer, unassigned); 2.11 µM

Requested field: Ventricular EC25. Item: Cc1nccc2[nH]c(=O)c(CC(=O)N[C@@H]3CNc4cc(F)cc(F)c43)c(C)c12 (single isomer, unassigned) 2.51 µM

###

Quick list: Atrial EC25 per entry.
Tested on: Porcine atria myofibrils (atrial myosin ATPase)
Assay: Myofibril ATPase assay, porcine atria myofibrils
Type: biochemical
Details: Y75 value (no ‡ mark); porcine atria myofibrils
Supply the numeric figure in nM, leaving out any unit text.

Cc1c(C(F)(F)C(=O)N[C@H](C)c2ncc(C#N)cc2F)c(=O)[nH]c2ccc(F)cc12 (single isomer, unassigned) [compound 2606]; 80

Requested field: Atrial EC25. Item: Cc1c(C2(C(=O)N[C@H](C)c3ncc(C#N)cc3F)CC2)c(=O)[nH]c2ccc(F)c(C#N)c12 (single isomer, unassigned) [compound 2523] 190

Requested field: Atrial EC25. Item: N#Cc1cnc2c(n1)CC[C@H]2NC(=O)Cc1cc2cc(F)c(F)cc2[nH]c1=O [compound 1082] 100000

Requested field: Atrial EC25. Item: Cc1cc(C#N)ccc1[C@H](C)NC(=O)Cc1c(O)c2cc(F)c(F)cc2[nH]c1=O [compound 1089] 6410

###

Biological target: Porcine ventricle myofibrils (ventricular myosin ATPase) (Sus scrofa, UniProt P79293)
Construct: Myofibrils from porcine cardiac muscle was isolated from the left ventricle of Yucatan minipigs; tissue Exemplar Genetics; host or cells: left ventricle of Yucatan minipigs, myofibrils prepared in house
Test: Myofibril ATPase assay, porcine ventricle myofibrils
Assay type: biochemical, porcine (Yucatan minipigs)
Settings: porcine ventricle myofibrils; Y75 value
Endpoint Name: Ventricular EC25 (µM)
Supply the numeric figure in µM, leaving out any unit text.

Cc1nccc2[nH]c(=O)c(CC(=O)N[C@@H](C)c3ccccn3)c(C)c12 (single isomer, unassigned); 100.00

Requested field: Ventricular EC25. Item: Cc1cc([C@H](C)NC(=O)Cc2cc3c(C#N)nccc3[nH]c2=O)ncc1F 67.58

Requested field: Ventricular EC25. Item: COc1cccc([C@@H](C)NC(=O)Cc2c(C)c3c(C)nccc3[nH]c2=O)n1 (single isomer, unassigned) 100.00

Requested field: Ventricular EC25. Item: Cc1cnncc1[C@H](C)NC(=O)Cc1c(C)c2c(C)nccc2[nH]c1=O 100.00

Requested field: Ventricular EC25. Item: Cc1c(CC(=O)N[C@@H](C)c2ccc(F)cc2F)c(=O)[nH]c2ccnc(C(F)(F)F)c12 0.29

Requested field: Ventricular EC25. Item: Cc1c(CC(=O)N[C@@H](C)c2ncc(C#N)cc2F)c(=O)[nH]c2ccc(C(F)(F)F)nc12 0.12

Requested field: Ventricular EC25. Item: Cc1c(CC(=O)N[C@@H](C)c2ccc(C#N)cn2)c(=O)[nH]c2ccnc(C#N)c12 1.80

Requested field: Ventricular EC25. Item: Cc1nccc2[nH]c(=O)c(CC(=O)N[C@H](CO)c3cccnc3)c(C)c12 (single isomer, unassigned) 100.00

Requested field: Ventricular EC25. Item: Cc1c(CC(=O)N[C@@H](C)c2ccc(F)cc2F)c(=O)[nH]c2ccnc(N3CCCC3)c12 100.00

###

Tested on: Rabbit Psoas myofibrils (skeletal myosin ATPase)
Assay: Myofibril ATPase assay, rabbit psoas (skeletal) myofibrils
Format: biochemical
Details: Y75 value (no ‡ mark); rabbit psoas myofibrils
Endpoint Name: Skeletal EC25 (nM)
Supply the numeric figure in nM, leaving out any unit text.

Some compounds with known Skeletal EC25 results, for comparison:
Cc1c(C2(C(=O)N[C@H](C)c3ncc(C#N)cc3F)CC2)c(=O)[nH]c2ccc(F)c(C(F)(F)F)c12 (single isomer, unassigned); 280
Cc1c(C(F)(F)C(=O)N[C@H](C)c2ccc(C#N)nn2)c(=O)[nH]c2ccc(F)cc12 (single isomer, unassigned); 800
Cc1c(C2(C(=O)N[C@@H](C)c3ncc(C#N)cc3F)CC2)c(=O)[nH]c2ccc(F)c(C(F)(F)F)c12 (single isomer, unassigned); 140

// fetch Rabbit Psoas myofibrils (skeletal myosin ATPase) Skeletal EC25 for Cc1c(CC(=O)N[C@H](C)c2ncc(C#N)cc2F)c(=O)[nH]c2ccc(F)cc12 370

// fetch Rabbit Psoas myofibrils (skeletal myosin ATPase) Skeletal EC25 for C[C@@H](NC(=O)Cc1cc2c(F)c(F)ccc2[nH]c1=O)c1ccc(C#N)cn1 430

// fetch Rabbit Psoas myofibrils (skeletal myosin ATPase) Skeletal EC25 for Cc1ccncc1[C@@H](C)NC(=O)Cc1c(C)c2cc(F)ccc2[nH]c1=O 2200

// fetch Rabbit Psoas myofibrils (skeletal myosin ATPase) Skeletal EC25 for Cc1c(C(F)(F)C(=O)N[C@@H](C)c2ncc(C#N)cn2)c(=O)[nH]c2ccc(F)cc12 (single isomer, unassigned) 170

// fetch Rabbit Psoas myofibrils (skeletal myosin ATPase) Skeletal EC25 for Cc1c(C(F)(F)C(=O)N[C@@H](C)c2ncc(C#N)cc2F)c(=O)[nH]c2ccc(F)cc12 (single isomer, unassigned) 40

// fetch Rabbit Psoas myofibrils (skeletal myosin ATPase) Skeletal EC25 for Cc1c(CC(=O)N[C@H](C)c2ccc(C#N)cn2)c(=O)[nH]c2cc(F)ccc12 100000

// fetch Rabbit Psoas myofibrils (skeletal myosin ATPase) Skeletal EC25 for Cc1c(CC(=O)N[C@@H]2COCc3cc(C#N)cnc32)c(=O)[nH]c2ccc(F)cc12 100000

// fetch Rabbit Psoas myofibrils (skeletal myosin ATPase) Skeletal EC25 for Cc1nc(C#N)cnc1[C@H](C)NC(=O)Cc1c(C)c2c(C#N)c(F)ccc2[nH]c1=O (single isomer, unassigned) 20

// fetch Rabbit Psoas myofibrils (skeletal myosin ATPase) Skeletal EC25 for Cc1c([C@@H](C)C(=O)N[C@@H](C)c2ccc(F)cc2F)c(=O)[nH]c2ccc(F)c(F)c12 (single isomer, unassigned) 50

// fetch Rabbit Psoas myofibrils (skeletal myosin ATPase) Skeletal EC25 for Cc1c(C(F)(F)C(=O)N[C@@H](C)c2ccc(C#N)nn2)c(=O)[nH]c2ccc(F)cc12 (single isomer, unassigned) 5170

// fetch Rabbit Psoas myofibrils (skeletal myosin ATPase) Skeletal EC25 for Cc1c(CC(=O)N[C@H](C)c2ccc(C#N)cn2)c(=O)[nH]c2cccc(F)c12 310
